- subject of test: T1, human transferrin receptor (recombinant, for surface plasmon resonance) (human, UniProt P02786 89-760)
- T1 construct: also called huTfR; human transferrin receptor-biotinylated
- method notes: SPR 25C
Give measured koff for each item. Keep answers brief.

stdin: So what does the record say about koff for 2/99 VH15/VL17 (antibody, V domains shown) VH: QQLQESGPGLVKPSETLSLTCTVSGFSLSSYAMSWVRQPPGKGLEWIGYIWSGGSTDYNPSLKSRVTISVDTSKNQVSLKLSSVTAADTAVYYCARRYGTSYPDYGDANGFDPWGQGTLVTVSS VL: AIQLTQSPSSLSASVGDRVTITCRASQSISSYLAWYQQKPGKAPKLLIYRASTLASGVPSRFSGSGSGTDFTLTISSLQPEDFATYYCQQTYSSSNVDNTFGGGTKVEIK ?
stdout: 0.00169 s⁻¹

stdin: So what does the record say about koff for 2/99 VH18/VL17 (antibody, V domains shown) VH: QVQLQESGPGLVKPSQTLSLTCTVSGFSLSSYAMSWIRQHPGKGLEWIGYIWSGGSTDYAPSLKSRVTISVDTSKNQFSLKLSSVTAADTAVYYCARRYGTSYPDYGDANGFDPWGQGTLVTVSS VL: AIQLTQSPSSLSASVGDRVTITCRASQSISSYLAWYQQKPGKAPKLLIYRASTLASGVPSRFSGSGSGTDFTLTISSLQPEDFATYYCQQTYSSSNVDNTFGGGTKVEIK ?
stdout: 0.0053 s⁻¹

stdin: So what does the record say about koff for 2/99 VH17/VL1 (antibody, V domains shown) VH: QQLQESGPGLVKPSETLSLTCTVSGFSLSSYAMSWVRQPPGKGLEWIGYIWSGGSTDYNPSLKSRVTISKDTSKNQVSLKLSSVTAADTAVYYCARRYGTSYPDYGDANGFDPWGPGTLVTVSS VL: DIQMTQSPSSLSASVGDRVTITCRASQSISSYLNWYQQKPGKAPKLLIYRASSLQSGVPSRFSGSGSGTDFTLTISSLQPEDFATYYCQQSYSSSNVDNTFGGGTKVEIK ?
stdout: 0.00433 s⁻¹

stdin: So what does the record say about koff for 2/99 VH19/VL8 (antibody, V domains shown) VH: QSMQESGPGLVKPSQTLSLTCTVSGFSLSSYAMSWIRQHPGKGLEWIGYIWSGGSTDYAPSLKSRVTISVDTSKNQFSLKLSSVTAADTAVYYCARRYGTSYPDYGDANGFDPWGQGTLVTVSS VL: AYQLTQSPSSLSASVGDRVTITCRASQSISSYLSWYQQKPGKAPKLLIYRASTLASGVPSRFSGSGSGTDFTLTISSLQPEDFATYYCQQSYSSSNVDNTFGGGTKVEIK ?
stdout: 0.00671 s⁻¹

stdin: So what does the record say about koff for 2/99 VH22/VL5 (antibody, V domains shown) VH: QSMQESGPGLVKPSQTLSLTCTVSGFSLSSYAMSWVRQHPGKGLEWIGYIWSGGSTDYASWAKSRVTISVDTSKNQVSLKLSSVTAADTAVYYCARRYGTSYPDYGDANGFDPWGQGTLVTVSS VL: DIQMTQSPSSLSASVGDRVTITCRASQSISSYLSWYQQKPGKAPKLLIYRASTLASGVPSRFSGSGSGTDFTLTISSLQPEDFATYYCQQSYSSSNVDNTFGGGTKVEIK ?
stdout: 0.00141 s⁻¹
